Tested on: GM16216
assayRemarks: Effect on mitochondrial membrane potential in human GM16216 cells assessed as intact mitochondrial membrane at 0.25 uM after 16 hrs by JC1 staining based flow cytometry (reference value: 87%)
Assay type: functional
quantityMeasured: Activity (%)
Respond with the bare value in %.

[
  {
    "molecule": "CN(C)c1ccc2nc3ccc(N(C)C)cc3[s+]c2c1.[Cl-] [METHYLENE BLUE ANHYDROUS]",
    "measuredTarget": "GM16216",
    "dataValue": 83
  }
]

Using the record for CCCCCCCCCCCCCc1cc2nc3ccc(N(C)C)cc3sc-2cc1=O , report its Activity.
87

Using the record for CCCCCCCCCCCc1cc2nc3ccc(N(C)C)cc3sc-2cc1=O , report its Activity.
86

Using the record for CCCCCCCCCCCCCCCCc1cc2nc3ccc(N(C)C)cc3sc-2cc1=O , report its Activity.
88

Using the record for CN(C)c1ccc2nc3ccc(=O)cc-3sc2c1 , report its Activity.
85

====

Tested on: GM15850
assayRemarks: Restoration of total aconitase activity in human GM15850 cells at 50 nM after 5 days by colorimetric method relative to control
Format: functional
Measured Activity by item
Respond with the bare value in %.

[
  {
    "smilesString": "CCCCCCCCCCCCCCCCc1cc2nc3ccc(N(C)C)cc3sc-2cc1=O",
    "Activity [%]": 121
  },
  {
    "smilesString": "CCCCCCCCCCCCCCCN(CCCC)c1ccc2nc3ccc(=O)cc-3sc2c1",
    "Activity [%]": 115
  },
  {
    "smilesString": "CCCCCCCCCCCCCCCN(C)c1ccc2nc3ccc(=O)cc-3sc2c1",
    "Activity [%]": 116
  }
]

Now consider a different compound.
Please provide the recorded Activity for CN(C)c1ccc2nc3ccc(=O)cc-3sc2c1 , tested on GM15850.
110

====

System: GM16216
assayRemarks: Effect on mitochondrial membrane potential in human GM16216 cells assessed as loss of mitochondrial membrane potential at 0.25 uM after 16 hrs by JC1 staining based flow cytometry (reference value: 13%)
Type: functional
quantityMeasured: Activity (%)
Respond with the bare value in %.

Solved entries:
[
  {
    "compound": "CN(C)c1ccc2nc3ccc(N(C)C)cc3[s+]c2c1.[Cl-] [METHYLENE BLUE ANHYDROUS]",
    "measuredTarget": "GM16216",
    "scaleUnit": "%",
    "Activity": 17
  },
  {
    "compound": "CCCCCCCCCCCCCCCCc1cc2nc3ccc(N(C)C)cc3sc-2cc1=[N+](C)C.[I-]",
    "measuredTarget": "GM16216",
    "scaleUnit": "%",
    "Activity": 14
  },
  {
    "compound": "CCCCCCCCCCCc1cc2nc3ccc(N(C)C)cc3sc-2cc1=[N+](C)C.[I-]",
    "measuredTarget": "GM16216",
    "scaleUnit": "%",
    "Activity": 18
  }
]

Now consider a different compound.
Using the record for CCCCCCCCCCCc1cc2nc3ccc(N(C)C)cc3sc-2cc1=O , report its Activity.
14

====

Tested on: GM16216
assayRemarks: Effect on mitochondrial membrane potential in human GM16216 cells assessed as intact mitochondrial membrane at 0.25 uM after 16 hrs by JC1 staining based flow cytometry (reference value: 87%)
Format: functional
quantityMeasured: Activity
Provide the measurement as a number trailed by its unit.

Solved entries:
[
  {
    "smilesString": "CCCCCCCCCCCCCCCCc1cc2nc3ccc(N(C)C)cc3sc-2cc1=[N+](C)C.[I-]",
    "measuredTarget": "GM16216",
    "Activity": "86%"
  },
  {
    "smilesString": "CCCCCCCCCCCCCc1cc2nc3ccc(N(C)C)cc3sc-2cc1=[N+](C)C.[I-]",
    "measuredTarget": "GM16216",
    "Activity": "82%"
  },
  {
    "smilesString": "CCCCCc1cc2nc3ccc(N(C)C)cc3sc-2cc1=[N+](C)C.[I-]",
    "measuredTarget": "GM16216",
    "Activity": "81%"
  }
]

Please provide the recorded Activity for CCCCCCCCCCCc1cc2nc3ccc(N(C)C)cc3sc-2cc1=[N+](C)C.[I-] , tested on GM16216.
82%

Please provide the recorded Activity for CCCCCc1cc2nc3ccc(N(C)C)cc3sc-2cc1=O , tested on GM16216.
84%
